Attribution: the supplement of paper PMC9399229

Recorded relative cell viability for the following compounds
Test system: Hep3B
assay.procedure: relative cell viability (CellTiter-Glo), compound plus cabozantinib, relative to the cabozantinib arm (arm median 1.05; reference not stated) (fraction); higher = more viable cells (less growth inhibition)
condition.context: cabozantinib 2 µM; 4 days
Counter-ions that a name gives are not always drawn. Whole data set: some 1,900 compounds, median “relative cell viability (CellTiter-Glo), compound plus cabozantinib, relative to the cabozantinib arm (arm median 1.05; reference not stated)” near 1.1, cut for the lowest 2% near 0.15. The entries come from a sample that favours the lowest values as a whole.
measure.name: relative cell viability

compound	observed.measurement
O=NO [Sodium Nitrite]	1.09
C=CC(=O)Nc1ccc2ncnc(Nc3ccc(OCc4cccc(F)c4)c(Cl)c3)c2c1	0.775
CC1=C(C(=O)OC2CCCCC2)C(c2ccc([N+](=O)[O-])cc2)C2=C(CC(C)(C)CC2=O)N1 (stereo not given)	1.31
CCNC(=O)c1noc(-c2cc(Cl)c(O)cc2O)c1-c1ccc(OC)cc1	0.183
CN1CCc2c(c3ccccc3n2Cc2ccc(C(=O)NO)cc2)C1 [Tubastatin A HCl]	1.01
